test system: PC-14; test: relative viability (nuclei count vs DMSO), 5 days (fraction); higher = more cells survive; details: first compound 0.08 µM
assay endpoint: relative viability
Lab note: jot the number down without any unit.

Q: Hi! What's the reported relative viability for Cc1cnc(-c2cnc(NCCNc3ccc(C#N)cn3)nc2-c2ccc(Cl)cc2Cl)[nH]1 + O=C(c1cc(Cc2n[nH]c(=O)c3ccccc23)ccc1F)N1CCN(C(=O)C2CC2)CC1 [Olaparib] (partner 8 µM) on PC-14?
Result: 0.242

Q: Return relative viability measured with PC-14 given this molecule: Cc1cnc(-c2cnc(NCCNc3ccc(C#N)cn3)nc2-c2ccc(Cl)cc2Cl)[nH]1 + Cc1cc(Nc2cc(N3CCN(C)CC3)nc(Sc3ccc(NC(=O)C4CC4)cc3)n2)n[nH]1 [Tozasertib] (partner 0.1 µM)
Result: 0.611

Q: For the record O=c1[nH]c2ccccc2n1C1CCN(CCCC(c2ccc(F)cc2)c2ccc(F)cc2)CC1 [Pimozide] + Cc1nc(Nc2ncc(C(=O)Nc3c(C)cccc3Cl)s2)cc(N2CCN(CCO)CC2)n1 [Dasatinib] (partner 0.075 µM) , what value of relative viability is listed for PC-14?
Result: 0.027

Q: // lookup relative viability | system=PC-14 | key= Cc1cnc(-c2cnc(NCCNc3ccc(C#N)cn3)nc2-c2ccc(Cl)cc2Cl)[nH]1 + COc1cc2c(Oc3ccc(NC(=O)C4(C(=O)Nc5ccc(F)cc5)CC4)cc3F)ccnc2cc1OCCCN1CCOCC1 [Foretinib] (partner 0.25 µM)
Result: 0.978

Q: Record Cc1cnc(-c2cnc(NCCNc3ccc(C#N)cn3)nc2-c2ccc(Cl)cc2Cl)[nH]1 + CCNC(=O)c1noc(-c2cc(C(C)C)c(O)cc2O)c1-c1ccc(CN2CCOCC2)cc1 [Luminespib] (partner 0.01 µM) : what is its relative viability with PC-14?
Result: 0.151
